System: human colon cancer (COL-1)
Assay type: in vivo, mouse
Details: /minimum effective dose (effective: TGIR≥50)
quantityMeasured: Therapeutic index

CCCCCCCCCCCCCCC(O)C(=O)NCC(=O)NC1C(O)C(O)C(Nc2ncnc3[nH]cnc23)OC1C(O)CO (stereo not drawn) [SPK112] | 4
CC(C)CCCCCCCCCCC(=O)NCC(=O)N[C@@H]1[C@@H](O)[C@@H](O)[C@@H](Nc2ncnc3[nH]cnc23)O[C@H]1C(O)CO (stereo partly drawn) [SPK136] | 4
CCCCCCCCCCCCCC(=O)NCC(=O)N[C@@H]1[C@@H](O)[C@@H](O)[C@@H](Nc2ncnc3[nH]cnc23)O[C@H]1C(O)CO (stereo partly drawn) [SPM10] | 4

---

Assay: in vivo
Design: species or system nude mice (BALB/c nu/nu)
Conditions: mouse, in vivo; intravenous, continuous 5 days, nude mice; maximum dose at which no animal was dead within 2 weeks; read-out: Maximum tolerated dose
quantityMeasured: MTD at 336 h

O=C(CCCCCCCCCCCCCCl)NCC(=O)N[C@@H]1[C@@H](O)[C@@H](O)[C@@H](Nc2ncnc3[nH]cnc23)O[C@H]1C(O)CO (stereo partly shown) | 9 mg/kg/day
CCCCCCCCCCCCCC(CC(=O)NCC(=O)NC1C(O)C(O)C(Nc2ncnc3[nH]cnc23)OC1C(O)CO)OC(C)=O (stereo not shown) | 6 mg/kg/day
O=C(CCCCCCCCCCCCCCF)NCC(=O)NC1C(O)C(O)C(Nc2ncnc3[nH]cnc23)OC1C(O)CO (stereo not shown) | 6 mg/kg/day
CCCCCCC/C=C/C=C/C(=O)NCC(=O)N[C@@H]1[C@@H](O)[C@@H](O)[C@@H](Nc2ncnc3[nH]cnc23)O[C@H]1C(O)CO (stereo partly shown) | 36 mg/kg/day
O=C(CCCCCCCCCCOc1ccccc1)NCC(=O)NC1C(O)C(O)C(Nc2ncnc3[nH]cnc23)OC1C(O)CO (stereo not shown) | 3.4 mg/kg/day
CCCCCCCCCCCCCC(O)CC(=O)NCC(=O)NC1C(O)C(O)C(Nc2ncnc3[nH]cnc23)OC1C(O)CO (stereo not shown) | 3 mg/kg/day
C=CCCCCCCCCCCC(=O)NCC(=O)N[C@@H]1[C@@H](O)[C@@H](O)[C@@H](Nc2ncnc3[nH]cnc23)O[C@H]1C(O)CO (stereo partly shown) | 6 mg/kg/day

---

System: human colon cancer (COL-1)
Assay type: in vivo, mouse
Settings: COL-1 s.c. in nude mice, at MTD; TGIR=(1-Tx/Cx)×100; maximum during about 3 weeks
quantityMeasured: TGIR (tumor growth inhibition rate, maximum)

O=C(CCCCCCCCCCCCl)NCC(=O)N[C@@H]1[C@@H](O)[C@@H](O)[C@@H](Nc2ncnc3[nH]cnc23)O[C@H]1C(O)CO (stereo partly shown) | 98
CCCCCCCCCCCCCCC(O)C(=O)NCC(=O)NC1C(O)C(O)C(Nc2ncnc3[nH]cnc23)OC1C(O)CO (stereo not shown) | 82
CC(C)CCCCCCCCCCC(=O)NCC(=O)N[C@@H]1[C@@H](O)[C@@H](O)[C@@H](Nc2ncnc3[nH]cnc23)O[C@H]1C(O)CO (stereo partly shown) | 84
CCCCCCCCCCCCCC(=O)NCC(=O)N[C@@H]1[C@@H](O)[C@@H](O)[C@@H](Nc2ncnc3[nH]cnc23)O[C@H]1C(O)CO (stereo partly shown) | 98
